System: THP-1
Procedure Summary: Antiinflammatory activity in human PMA-stimulated THP1 cells assessed as inhibition of LPS-induced IL-6 production at 10 uM treated 30 mins before LPS challenge measured after 24 hrs by ELISA
Format: functional
The reader will find reported inhibition at 10 µM values listed item by item below.

- Chemical Smiles: "O=S(=O)(Nc1ccc(-c2cc(Nc3cccc(C(F)(F)F)c3)ncn2)cc1)c1ccc(OC(F)(F)F)cc1"
  inhibition at 10 µM (%): 8
- Chemical Smiles: "N#Cc1cccc(NC(=S)Nc2ccc(-c3cc(Nc4cccc(C(F)(F)F)c4)ncn3)cc2)c1"
  inhibition at 10 µM (%): 16
- Chemical Smiles: "CSc1ccc(NC(=O)Nc2ccc(-c3cc(Nc4cccc(C(F)(F)F)c4)ncn3)cc2)cc1"
  inhibition at 10 µM (%): 0
- Chemical Smiles: "COc1ccc(OC)c(S(=O)(=O)Nc2ccc(-c3cc(Nc4cccc(C(F)(F)F)c4)ncn3)cc2)c1"
  inhibition at 10 µM (%): 26
- Chemical Smiles: "O=C(Nc1ccc(-c2cc(Nc3cccc(C(F)(F)F)c3)ncn2)cc1)Nc1cccc(C(F)(F)F)c1"
  inhibition at 10 µM (%): 40
- Chemical Smiles: "O=[N+]([O-])c1ccc(-c2cc(Nc3cccc(C(F)(F)F)c3)ncn2)cc1"
  inhibition at 10 µM (%): 0
- Chemical Smiles: "O=C(Nc1ccc(-c2cc(Nc3cccc(C(F)(F)F)c3)ncn2)cc1)Nc1cccc(Cl)c1F"
  inhibition at 10 µM (%): 96
- Chemical Smiles: "Cc1cccc(S(=O)(=O)Nc2ccc(-c3cc(Nc4cccc(C(F)(F)F)c4)ncn3)cc2)c1"
  inhibition at 10 µM (%): 25
- Chemical Smiles: "O=[N+]([O-])c1ccc(-c2cc(Cl)ncn2)cc1"
  inhibition at 10 µM (%): 0
- Chemical Smiles: "Fc1ccccc1NC(=S)Nc1ccc(-c2cc(Nc3cccc(C(F)(F)F)c3)ncn2)cc1"
  inhibition at 10 µM (%): 62
- Chemical Smiles: "Cc1ccc(NC(=O)Nc2ccc(-c3cc(Nc4cccc(C(F)(F)F)c4)ncn3)cc2)cc1C"
  inhibition at 10 µM (%): 27
- Chemical Smiles: "Cc1ccccc1NC(=S)Nc1ccc(-c2cc(Nc3cccc(C(F)(F)F)c3)ncn2)cc1"
  inhibition at 10 µM (%): 0
- Chemical Smiles: "N#Cc1ccc(NC(=O)Nc2ccc(-c3cc(Nc4cccc(C(F)(F)F)c4)ncn3)cc2)cc1"
  inhibition at 10 µM (%): 80
- Chemical Smiles: "CC(C)c1ccc(NC(=O)Nc2ccc(-c3cc(Nc4cccc(C(F)(F)F)c4)ncn3)cc2)cc1"
  inhibition at 10 µM (%): 90
- Chemical Smiles: "FC(F)(F)c1cccc(Nc2cc(-c3ccc(NC(=S)Nc4ccc(Cl)cc4)cc3)ncn2)c1"
  inhibition at 10 µM (%): 28
- Chemical Smiles: "FC(F)(F)c1cccc(Nc2cc(-c3ccc(NC(=S)Nc4cc(C(F)(F)F)cc(C(F)(F)F)c4)cc3)ncn2)c1"
  inhibition at 10 µM (%): 0
- Chemical Smiles: "CC1(C)OB(c2ccc([N+](=O)[O-])cc2)OC1(C)C"
  inhibition at 10 µM (%): 0
- Chemical Smiles: "N#Cc1cccc(S(=O)(=O)Nc2ccc(-c3cc(Nc4cccc(C(F)(F)F)c4)ncn3)cc2)c1"
  inhibition at 10 µM (%): 12
- Chemical Smiles: "COc1ccc(NC(=S)Nc2ccc(-c3cc(Nc4cccc(C(F)(F)F)c4)ncn3)cc2)cc1"
  inhibition at 10 µM (%): 8
- Chemical Smiles: "Nc1ccc(-c2cc(Nc3cccc(C(F)(F)F)c3)ncn2)cc1"
  inhibition at 10 µM (%): 6
- Chemical Smiles: "O=S(=O)(Nc1ccc(-c2cc(Nc3cccc(C(F)(F)F)c3)ncn2)cc1)c1ccccc1OC(F)(F)F"
  inhibition at 10 µM (%): 0
- Chemical Smiles: "FC(F)(F)c1cccc(Nc2cc(-c3ccc(NC(=S)Nc4ccccc4C(F)(F)F)cc3)ncn2)c1"
  inhibition at 10 µM (%): 82
- Chemical Smiles: "Cc1ccc(F)cc1S(=O)(=O)Nc1ccc(-c2cc(Nc3cccc(C(F)(F)F)c3)ncn2)cc1"
  inhibition at 10 µM (%): 56
- Chemical Smiles: "COc1cccc(NC(=O)Nc2ccc(-c3cc(Nc4cccc(C(F)(F)F)c4)ncn3)cc2)c1"
  inhibition at 10 µM (%): 18
- Chemical Smiles: "O=S(=O)(Nc1ccc(-c2cc(Nc3cccc(C(F)(F)F)c3)ncn2)cc1)c1ccc(Br)cc1"
  inhibition at 10 µM (%): 11
